Reported kon values follow for various molecules
System: Elastase (human neutrophil (HLE)) (Homo sapiens, UniProt P08246)
Construct: purchased Calbiochem
Sequence (P08246 30-267): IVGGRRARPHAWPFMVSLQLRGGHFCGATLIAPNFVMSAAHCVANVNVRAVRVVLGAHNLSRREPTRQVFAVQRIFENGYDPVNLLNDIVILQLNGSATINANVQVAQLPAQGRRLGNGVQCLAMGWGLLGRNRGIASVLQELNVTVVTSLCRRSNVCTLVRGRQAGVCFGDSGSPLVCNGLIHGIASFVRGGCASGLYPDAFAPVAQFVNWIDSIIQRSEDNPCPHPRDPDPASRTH
Test: Inhibition of human leukocyte (neutrophil) elastase, progress curve method (methoxy-Suc-Ala-Ala-Pro-Val-pNA substrate)
Format: biochemical
Condition Summary: pH 6.5, HLE, 25 mM HEPES, 1M NaCl, 0.1% BRIJ 35, pH 6.5, 25° C.

>  <Molecule>
CCOc1nc2ccc(NC(=O)CCNC(=O)OC(C)(C)C)c(C)c2c(=O)o1

>  <kon (M⁻¹ s⁻¹)>
365000

$$$$
>  <Molecule>
CCOc1nc2ccc(NC(=O)CCN(C)S(=O)(=O)c3ccc(C)cc3)c(CC)c2c(=O)o1

>  <kon (M⁻¹ s⁻¹)>
745000

$$$$
>  <Molecule>
CCOc1nc2ccc(NC(=O)CCN(C)C(=O)OC(C)(C)C)c(CC)c2c(=O)o1

>  <kon (M⁻¹ s⁻¹)>
281000

$$$$
>  <Molecule>
CCOc1nc2ccc(C(C)NC(=O)[C@H](C)NC(=O)OC(C)(C)C)c(C)c2c(=O)o1 (some centres unmarked)

>  <kon (M⁻¹ s⁻¹)>
520000

$$$$
>  <Molecule>
CCOc1nc2ccc(NC(=O)CCN(C)C(=O)OC(C)(C)C)c(C)c2c(=O)o1

>  <kon (M⁻¹ s⁻¹)>
320000

$$$$
>  <Molecule>
CCOc1nc2cccc(C)c2c(=O)o1 [positive control, reference compound]

>  <kon (M⁻¹ s⁻¹)>
140000

$$$$
>  <Molecule>
CCOc1nc2ccc(N)c(C)c2c(=O)o1

>  <kon (M⁻¹ s⁻¹)>
750000

$$$$
>  <Molecule>
CCOc1nc2ccc(N)c(CC)c2c(=O)o1

>  <kon (M⁻¹ s⁻¹)>
470000

$$$$

---

System: Elastase (human neutrophil (HLE)) (Homo sapiens)
Construct: purchased Calbiochem
Test: Inhibition of human leukocyte (neutrophil) elastase, progress curve method (methoxy-Suc-Ala-Ala-Pro-Val-pNA substrate)
Assay type: biochemical
Condition Summary: pH 6.5, HLE, 25 mM HEPES, 1M NaCl, 0.1% BRIJ 35, pH 6.5, 25° C.
Test Readout: log10 of koff (log10 of the value in s⁻¹)

>  <Compound>
CCOc1nc2cccc(C)c2c(=O)o1 [positive control, reference compound]

>  <log10 of koff>
-4.14

$$$$
>  <Compound>
CCOc1nc2ccc(NC(=O)CCN(C)S(=O)(=O)c3ccc(C)cc3)c(CC)c2c(=O)o1

>  <log10 of koff>
-4.16

$$$$
>  <Compound>
CCOc1nc2ccc(NC(=O)CCN(C)C(=O)OC(C)(C)C)c(C)c2c(=O)o1

>  <log10 of koff>
-3.38

$$$$
>  <Compound>
CCOc1nc2ccc(C(C)NC(=O)[C@H](C)NC(=O)OC(C)(C)C)c(C)c2c(=O)o1 (stereo partly drawn)

>  <log10 of koff>
-4.77

$$$$
>  <Compound>
CCOc1nc2ccc(N)c(CC)c2c(=O)o1

>  <log10 of koff>
-4.33

$$$$
>  <Compound>
CCOc1nc2ccc(NC(=O)CCNC(=O)OC(C)(C)C)c(C)c2c(=O)o1

>  <log10 of koff>
-3.39

$$$$
>  <Compound>
CCOc1nc2ccc(N)c(C)c2c(=O)o1

>  <log10 of koff>
-4.64

$$$$
>  <Compound>
CCOc1nc2ccc(C(C)NC(=O)[C@@H](NC(=O)OC(C)(C)C)C(C)C)c(C)c2c(=O)o1 (single isomer, unassigned) [7 Isomer A]

>  <log10 of koff>
-4.74

$$$$
>  <Compound>
CCOc1nc2ccc(NC(=O)CCN(C)C(=O)OC(C)(C)C)c(CC)c2c(=O)o1

>  <log10 of koff>
-4.52

$$$$

---

System: Elastase (human neutrophil (HLE)) (Homo sapiens)
Construct: purchased Calbiochem
Test: Inhibition of human leukocyte (neutrophil) elastase, progress curve method (methoxy-Suc-Ala-Ala-Pro-Val-pNA substrate)
Type: biochemical
Condition Summary: HLE, 25 mM HEPES, 1M NaCl, 0.1% BRIJ 35, pH 6.5, 25° C.
Procedure: Enzymes and their substrates, listed below, were obtained from Calbiochem. […] Additional compounds within the scope of the invention were evaluated using the progress curve method of Stein et al. to determine the kinetic constants kon, koff, as well as the pKi and relative selectivity for HLE over other serine proteases.

>  <Compound>
CCOc1nc2ccc(NC(=O)CCN(C)C(=O)OC(C)(C)C)c(CC)c2c(=O)o1 [Example 5]

>  <Readout Units>
nM

>  <Ki>
0.107

$$$$
>  <Compound>
CCOc1nc2ccc(NC(=O)CCNC(=O)OC(C)(C)C)c(C)c2c(=O)o1 [Example 2]

>  <Readout Units>
nM

>  <Ki>
1.1

$$$$
>  <Compound>
CCOc1nc2ccc(C(C)NC(=O)[C@H](C)NC(=O)OC(C)(C)C)c(C)c2c(=O)o1 (stereo partly shown) [Example 8]

>  <Readout Units>
nM

>  <Ki>
0.0331

$$$$
>  <Compound>
CCOc1nc2ccc(N)c(C)c2c(=O)o1

>  <Readout Units>
nM

>  <Ki>
0.0145

$$$$
>  <Compound>
CCOc1nc2cccc(C)c2c(=O)o1 [positive control, reference compound]

>  <Readout Units>
nM

>  <Ki>
0.513

$$$$
>  <Compound>
CCOc1nc2ccc(NC(=O)CCN(C)C(=O)OC(C)(C)C)c(C)c2c(=O)o1 [Example 3]

>  <Readout Units>
nM

>  <Ki>
1.32

$$$$
>  <Compound>
CCOc1nc2ccc(N)c(CC)c2c(=O)o1 [Example 4]

>  <Readout Units>
nM

>  <Ki>
0.1

$$$$
>  <Compound>
CCOc1nc2ccc(NC(=O)CCN(C)S(=O)(=O)c3ccc(C)cc3)c(CC)c2c(=O)o1 [Example 6]

>  <Readout Units>
nM

>  <Ki>
0.0933

$$$$
>  <Compound>
CCOc1nc2ccc(C(C)NC(=O)[C@@H](NC(=O)OC(C)(C)C)C(C)C)c(C)c2c(=O)o1 (single isomer, unassigned) [7 Isomer B]

>  <Readout Units>
nM

>  <Ki>
0.0145

$$$$
>  <Compound>
CCOc1nc2ccc(C(C)NC(=O)[C@@H](NC(=O)OC(C)(C)C)C(C)C)c(C)c2c(=O)o1 (single isomer, unassigned) [7 Isomer A]

>  <Readout Units>
nM

>  <Ki>
0.0589

$$$$
